These entries and their values trace back to PubChem BioAssay (NCI).

# System: SK-MEL-2 melanoma
# assay: NCI-60 one-dose screen, 48 h
# measurement parameters: 10 µM unless noted
The panel holds about 83,000 compounds, 20% with a hit somewhere; the sample as a whole holds those more often. The source made the active and inactive calls. The calls were made as follows: active = growth percent below 10; inactive = the rest.
Reply using exactly one outcome from active, inactive

# compound, label
measured = [
    ("Fc1cc(-c2nnc3sc(-c4ccc(Cl)cc4)nn23)c(Cl)cc1Cl", "inactive"),
    ("COc1cccc(NC(=O)c2c(-c3ccccc3)c(-c3ccccc3)n[nH]c2=O)c1", "inactive"),
    ("O=C1C=CC(=O)N1CO", "inactive"),
    ("CCCNC(=S)N/N=C(\\C)c1ccccn1", "inactive"),
    ("O=C(NO)c1ccc(NCc2csc3ccccc23)cc1", "inactive"),
    ("CCN(CC)CCCNc1cccc2c(C)cc(OC)nc12", "inactive"),
    ("CCCCN(CCCC)CCC(O)c1cc2ccc(C(F)(F)F)cc2c2cc(C(F)(F)F)ccc12 (configuration not stated)", "inactive"),
    ("Cc1ccc(N=CNN=C(N)N)cc1", "inactive"),
    ("COc1ccc(C(=O)C(CN(C)C)c2ccccc2)cc1 (configuration not stated)", "inactive"),
    ("CC[C@H](Nc1nc(N)nc(N)c1Cl)c1nc2cccc(NCc3ccc(C(=O)NO)cc3)c2c(=O)n1-c1ccccc1", "inactive"),
]

Q: For this compound, state the assay outcome: O=[N+]([O-])c1ccccc1CN1CCCCC1
Result: inactive

Q: For this compound, state the assay outcome: O=[N+]([O-])c1cccc(N=C(Nc2cccc([N+](=O)[O-])c2)c2ccccc2)c1
Result: inactive

Q: For this compound, state the assay outcome: N#CC1=C(N)Oc2nc[nH]c(=O)c2C1c1cccs1 (configuration not stated)
Result: inactive

Q: For this compound, state the assay outcome: Cc1ccc(Nc2nc(NCCO)c3ccccc3n2)cc1C
Result: inactive

Q: For this compound, state the assay outcome: OC(c1cc2cc(Cl)ccc2c2cc(C(F)(F)F)ccc12)C1CCCCN1 (configuration not stated)
Result: active

Q: For this compound, state the assay outcome: CC(=O)c1c(O)c(C)c(O)c2c1OC1=CC(=O)/C(=C(/C)N)C(=O)C12C (configuration not stated)
Result: inactive

Q: For this compound, state the assay outcome: CCCCCCCCCCCCCCCCS(=O)(=O)Nc1cc(C(=O)NN)cc(C(=O)NN)c1
Result: inactive

###

# growth per entry
# Test system: EKVX NSCLC
# assay: NCI-60 one-dose screen, 48 h (100 = growth as untreated, 0 = no growth, -100 = all killed)
# measurement parameters: 10 µM unless noted
Compounds without any hit were thinned out: in the full panel of roughly 83,000, 20% have a hit.
Your answer is read as %, so omit the unit and give the number.

# compound, growth (%)
measured = [
    ("COc1c(C(=O)/C=C/c2ccc(C)o2)c(O)cc2occc12", 68.6),
    ("CCCCN(CCCC)CCC(O)c1cc2ccc(C(F)(F)F)cc2c2cc(C(F)(F)F)ccc12 (stereo not drawn)", 70),
]

Q: Quote growth reported for Cn1c(=O)c2c3c(oc2c2ccccc21)C(=O)c1ccccc1C3=O please.
Result: 70.7

###

# Tested on: RPMI-8226 leukemia
# assay: NCI-60 one-dose screen, 48 h (100 = growth as untreated, 0 = no growth, -100 = all killed)
# measurement parameters: 10 µM unless noted
About 83,000 compounds went through this panel and 20% of them were active in at least one assay; those are over-represented in the sample as a whole.
# growth per entry
Your answer is read as %, so omit the unit and give the number.

Study these solved cases before continuing.
# item smiles, endpoint result
data = [
    ("CCCCn1c(C)nc2cc(Nc3nc(Cl)nc4nc[nH]c34)ccc21", 65.4),
    ("COc1ccc(-c2oc(=O)ccc2-c2cc(OC)c(OC)c(OC)c2)cc1F", 80.8),
]

Q: Quote growth reported for Cc1n(Cc2ccc3ccccc3n2)cc[n+]1Cc1ccc2ccccc2n1 please.
Result: 24.6

###

# Tested on: IGROV1 ovarian
# assay: NCI-60 one-dose screen, 48 h (100 = growth as untreated, 0 = no growth, -100 = all killed)
# measurement parameters: 10 µM unless noted
The panel holds about 83,000 compounds, 20% with a hit somewhere; the sample as a whole holds those more often.
readout kind: growth (%)
Your answer is read as %, so omit the unit and give the number.

Q: Quote growth reported for CN(C)CCOc1nc2c3cccnc3cc(-c3cccc(Cl)c3)c2c2ncccc12 please.
Result: 30.9

Q: Quote growth reported for CN1CCN(Cc2ccc(NC(=O)c3cncc(C#Cc4ncc5ccccn45)c3)cc2C(F)(F)F)CC1 please.
Result: 17.9

###

# growth per entry
# Test system: RPMI-8226 leukemia
# assay: NCI-60 one-dose screen, 48 h (100 = growth as untreated, 0 = no growth, -100 = all killed)
# measurement parameters: 10 µM unless noted
This is part of a sample that, as a whole, favours compounds with a hit. Of some 83,000 tested, about 20% had one in any assay.
Your answer is read as %, so omit the unit and give the number.

Q: Quote growth reported for CC1CN(CCCOC(=O)Nc2ccc(Cl)cc2)CCN1C(C)(C)C (centres undefined) please.
Result: 100

Q: Quote growth reported for COc1ccc(/C=C/C(=O)c2ccc(NC(=O)CSc3nnc(-c4ccc(Cl)cc4)n3-c3ccccc3)cc2)cc1 please.
Result: 60.4

Q: Quote growth reported for c1ccc(C2=Nc3ccccc3SC2)cc1 please.
Result: 93.8

Q: Quote growth reported for COc1ccc(C2CC(c3ccc(Nc4ccnc5cc(Cl)ccc45)cc3)=NN2c2ccccc2)cc1 (centres undefined) please.
Result: 70.5

Q: Quote growth reported for COc1ccc(Nc2ncnc3c2sc2nc(C)cc(C)c23)cc1 please.
Result: 101

Q: Quote growth reported for CCOC(=O)NNc1cccc(Cl)c1 please.
Result: 98.8

###

# Test system: COLO 205 colon
# assay: NCI-60 one-dose screen, 48 h
# measurement parameters: 10 µM unless noted
This is part of a sample that, as a whole, favours compounds with a hit. Of some 83,000 tested, about 20% had one in any assay. Active and inactive are the calls of the source. Rule for the calls: active = growth percent below 10; inactive = the rest.
Reply using exactly one outcome from 1.0 for active, 0.0 for inactive

The following compounds have reported results that may help.
# compound, subject of test, label
measured = [
    ("C1=C\\CCCCN2CC[C@H]3[C@H](CCCC/C=C\\CCCN4C[C@@H](CCCCC/1)C[C@@H]3C4)C2", "COLO 205 colon", 1.0),
    ("CCN(CC)CCCC(C)Nc1cnc(C(=O)Nc2ccc(Cl)c3cccnc23)cn1 (centres undefined)", "COLO 205 colon", 1.0),
    ("Nc1nc(N)c2cc(Sc3ccc(Cl)cc3)ccc2n1", "COLO 205 colon", 1.0),
    ("COc1cc(C)cc2oc3oc(=O)c(-c4csc(-c5cc6ccccc6oc5=O)n4)cc3c(=O)c12", "COLO 205 colon", 0.0),
    ("C#CCNC(=S)N/N=C(\\C)c1ccccn1", "COLO 205 colon", 0.0),
    ("CC(C)[C@H](CN)NC[C@H](C)NS(=O)(=O)c1ccc(C(C)(C)C)cc1", "COLO 205 colon", 0.0),
    ("COc1ccc(NC(=O)c2ccc(C(F)(F)F)nc2Nc2ccc(Cl)cc2C)cc1Cl", "COLO 205 colon", 1.0),
    ("CC(OC(=O)Nc1cccc(Cl)c1)C(=O)O (centres undefined)", "COLO 205 colon", 0.0),
]

Q: For this compound, state the assay outcome: CCc1ccc(Nc2ncnc3c2cnn3-c2cccc(Br)c2)cc1
Result: 0.0

Q: For this compound, state the assay outcome: Cc1ccc(NC(=O)c2nc(S(C)=O)oc2-c2ccc(F)cc2)cc1Nc1nccc(-c2cccnc2)n1 (centres undefined)
Result: 0.0

###

# Tested on: HT29 colon
# assay: NCI-60 one-dose screen, 48 h (100 = growth as untreated, 0 = no growth, -100 = all killed)
# measurement parameters: 10 µM unless noted
About 83,000 compounds went through this panel and 20% of them were active in at least one assay; those are over-represented in the sample as a whole.
Tick Satisfied if growth is 90% or greater. Tick Not satisfied if growth is less than 90%.

The following compounds have reported results that may help.
# compound, label
rows = [
    ("COc1ccc(OC)c(Nc2nc(-c3c(C)nc4sccn34)cs2)c1", "Not satisfied"),
    ("O=C(O)C1[S][Sb]([CH](C(=O)O)[CH](C(=O)O)[Sb]2[S]C(C(=O)O)C(C(=O)O)[S]2)[S]C1C(=O)O (configuration not stated)", "Not satisfied"),
    ("O=C1Nc2ccccc2/C1=C/c1c[nH]c2ccccc12", "Satisfied"),
    ("OC(c1cc2c(Cl)cc(Cl)cc2c2cc(C(F)(F)F)ccc12)C1CCCCN1 (configuration not stated)", "Not satisfied"),
    ("CCOc1cccc(/C=N/NC(=O)Cc2ccc(Nc3ccnc(C(F)(F)F)c3)cc2)c1O", "Not satisfied"),
]

Q: growth >= 90% for COc1c(B(O)O)cccc1-c1nc2c(F)cc3n[nH]c(C)c3c2c2c1CCCC2 ?
Result: Not satisfied

Q: growth >= 90% for CCN(C(=O)Nc1cccc2ccccc12)c1ccccc1 ?
Result: Satisfied

Q: growth >= 90% for COc1cc(/C=C/C(=O)c2c(C)nc3ccccc3c2C)ccc1OCCCOc1cc2c(cc1OC)C(=O)N1CCC[C@H]1C=N2 ?
Result: Not satisfied

Q: growth >= 90% for CCCCOc1ncnc2nc[nH]c12 ?
Result: Satisfied

Q: growth >= 90% for CCN(CC)CCNc1c(C)cc(CO)c(Cl)c1C ?
Result: Satisfied
